Tested on: HeLa
Assay: Primary qHTS to identify gynecologic anti-cancer compounds using libraries of approved drugs and bioactive compounds (AID 1345084); note: nearly all actives have a fitted effect of over 55% in size
Settings: Gynecologic cancer cell panel viability, ATPlite luminescence, 48 h; series mostly up to 57.5 µM
Results filed as inconclusive are left out. Active and inactive are the calls of the source. Calls come from the whole dose curve; as a rule, active = well fitted cell-killing curve with a large enough effect; inconclusive = small, poorly fitted or top-dose-only effect, or effect the other way; inactive = flat fitted curve, though single readings scatter.
Response enum: 1 (active), -1 (inactive)

Would you please look over these solved cases?
                                   compound  category
0  CC(C)S(=O)(=O)NC[C@H](C)c1ccc(-c2ccc(CCNS(C)(=O)=O)cc2)cc1        -1
1  CC1(C)C2CCC(CO[C@@H]3O[C@H](CO[C@@H]4OC[C@](O)(CO)[C@H]4O)[C@@H](O)[C@H](O)[C@H]3O)C1C2 (some centres undefined)        -1
2          O=C(Nc1cnc(Cl)nc1)c1ccc(F)c(F)c1        -1
3  CC(C)(N)c1ncc(-c2ccc(OC(F)(F)F)cc2)[nH]1        -1
4  Cc1ccc(OC[C@H](O)[C@H](C)NC(C)C)c2c1CCC2        -1
5  O=C(O)C1=CO[C@@H](O[C@@H]2O[C@H](CO)[C@@H](O)[C@H](O)[C@H]2O)[C@@H]2C(CO)=CC[C@H]12        -1
6  CC1=CC2/C=C(\C)CCC3OC(C)(C)OC3CCC(=O)C23C(=O)NC(CC(C)C)C3C1C (centres undefined)        -1
7  Nc1nc2c(ncn2C2OC3COP(=O)(O)OC3C2O)c(=O)[nH]1 (centres undefined)        -1

Test call for this compound, please: CC(C)NC(=O)COc1cccc(-c2nc(Nc3ccc4[nH]ncc4c3)c3ccccc3n2)c1
1
